Assay: BET inhibitor-based combinations targeting novel dependencies in MECOM-rearranged (r) AML: HNT-34 cell line (AID 2202234); also: nearly all actives have a fitted effect of over 35% in size; also: potency is read from the fitted curve at half-maximal effect
Conditions: HNT-34 AML viability, CellTiter-Glo luminescence, 48 h; series mostly up to 46 µM
Results filed as inconclusive are left out. Active and inactive are the calls of the source. Calls follow the shape of the dose curve; as a rule, active = well fitted inhibition curve with a large enough effect; inconclusive = small, poorly fitted or top-dose-only effect; inactive = no such curve, though single readings can be large or run the other way.
measurement-label: Potency

Use these answered entries as a reference point.
query: # query: Potency of entry C[C@H]1O[C@H](O[C@H]2[C@H](O)[C@@H](O)[C@@H](O[C@H]3[C@H](O)[C@@H](O)C(O)O[C@@H]3CO)O[C@@H]2CO)[C@H](O)[C@@H](O)[C@@H]1N[C@H]1C=C(CO)[C@@H](O)[C@H](O)[C@H]1O (some centres undefined)
result: inactive

query: What does the data say about its Potency? Entry: O=C(NOCCO)c1ccc2cncn2c1Nc1ccc(I)cc1F
result: 0.525 µM (active)

query: Could you share which Potency value was measured for C[C@@H](Nc1ncnc2[nH]c(-c3ccc(O)cc3)cc12)c1ccccc1 ?
result: 14.8 µM (active)

query: I am curious: what Potency value has been reported for C#Cc1cccc(Nc2ncnc3cc(OCCOC)c(OCCOC)cc23)c1 ?
result: 5.25 µM (active)

query: Quick one: Potency of CS[C@H]1SC[C@@H]2C(=O)N(C)[C@H](C(C)C)C(=O)OC[C@H](NC(=O)c3cnc4ccccc4n3)C(=O)N[C@H](C)C(=O)N(C)[C@H]1C(=O)N(C)[C@H](C(C)C)C(=O)OC[C@H](NC(=O)c1cnc3ccccc3n1)C(=O)N[C@H](C)C(=O)N2C ?
result: 0.0066 µM (active)

Hi team, please reply with Potency for each item in this list.
1. CC(C)C1CCC(C(=O)N[C@H](Cc2ccccc2)C(=O)O)CC1 (some centres undefined)
2. COc1cc(OC)cc(N(CCNC(C)C)c2ccc3ncc(-c4cnn(C)c4)nc3c2)c1
3. Cc1ncsc1-c1ccc([C@H](C)NC(=O)[C@@H]2C[C@@H](O)CN2C(=O)[C@@H](NC(=O)COCCCOCCNC(=O)C[C@@H]2N=C(c3ccc(Cl)cc3)c3c(sc(C)c3C)-n3c(C)nnc32)C(C)(C)C)cc1
4. C[C@@H](O)[C@@H](C)Oc1nc(Nc2ccc(S(=N)(=O)C3CC3)cc2)ncc1C(F)(F)F (some centres undefined)
5. CN(C)C/C=C/C(=O)Nc1cc2c(Nc3ccc(F)c(Cl)c3)ncnc2cc1O[C@H]1CCOC1

result:
inactive
2.35 µM (active)
0.0295 µM (active)
16.6 µM (active)
2.95 µM (active)

Parameters: items (list). Returns: Potency for each item.
1. COc1cc2c(Oc3ccc4[nH]c(C)cc4c3F)ccnc2cc1OCC1(N)CC1
2. CN1C(C(=O)Nc2ccccn2)=C(O)c2sccc2S1(=O)=O
3. C=CC[C@@H]1/C=C(\C)C[C@H](C)C[C@H](OC)[C@H]2O[C@@](O)(C(=O)C(=O)N3CCCC[C@H]3C(=O)O[C@H](/C(C)=C/[C@@H]3CC[C@@H](O)[C@H](OC)C3)[C@H](C)[C@@H](O)CC1=O)[C@H](C)C[C@@H]2OC
4. C[C@H]1[C@H](O)O[C@@H]2O[C@@]3(C)CC[C@H]4[C@H](C)CC[C@@H]1[C@@]24OO3

result:
["10.5 µM (active)", "inactive", "23.5 µM (active)", "1.18 µM (active)"]
